Molecular target: Delta-type opioid receptor (Rattus norvegicus)
Sequence (P33533 whole entry): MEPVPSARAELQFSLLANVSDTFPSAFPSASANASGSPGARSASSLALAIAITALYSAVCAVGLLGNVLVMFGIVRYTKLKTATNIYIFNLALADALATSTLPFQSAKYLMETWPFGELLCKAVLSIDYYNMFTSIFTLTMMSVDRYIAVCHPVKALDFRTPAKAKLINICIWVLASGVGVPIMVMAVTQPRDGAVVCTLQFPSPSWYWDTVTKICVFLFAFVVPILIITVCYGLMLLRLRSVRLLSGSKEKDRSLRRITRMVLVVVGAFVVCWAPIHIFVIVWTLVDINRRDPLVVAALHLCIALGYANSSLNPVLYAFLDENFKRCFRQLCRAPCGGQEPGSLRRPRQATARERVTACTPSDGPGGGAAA
Assay: Binding affinity against Opioid receptor delta 1 in P2 membrane preparation of rat brain by [3H]DADLE displacement.
Assay type: cell membranes
Square brackets hold non-standard residues; d marks the D form. Peptide text beside a SMILES is read from it.
Under this convention, T denotes Ki strictly below 6 nM and F denotes Ki at or above 6 nM.

CC(C)[C@H](NC(=O)[C@H](CCC(N)=O)NC(=O)[C@H](Cc1ccccc1)NC(=O)[C@@H](C)NC(=O)[C@@H](N)Cc1ccc(O)cc1)C(=O)N[C@H](C(=O)NCC(=O)O)C(C)C: T

input: Identify whether the compound CSCC[C@H](NC(=O)[C@H](CC(C)C)NC(=O)[C@H](Cc1c[nH]cn1)NC(=O)[C@H](Cc1ccccc1)NC(=O)[C@@H](CCSC)NC(=O)[C@@H](N)Cc1ccc(O)cc1)C(=O)N[C@@H](CC(=O)O)C(=O)O (H-Y[dM]FHLMD-OH) records Ki below 6 nM.
output: F

input: Hello, I'm reviewing records and need to know if Ki of CC(C)[C@H](NC(=O)CNC(=O)[C@H](Cc1ccccc1)NC(=O)[C@H](C)NC(=O)[C@@H](N)Cc1ccc(O)cc1)C(=O)N[C@H](C(=O)N[C@@H](CC(=O)O)C(=O)O)C(C)C (H-YAFGVVD-OH) is below 6 nM. Could you check?
output: F

input: Please check: Ki for CSCC[C@H](NC(=O)[C@H](CC(C)C)NC(=O)[C@H](Cc1cnc[nH]1)NC(=O)[C@H](Cc1ccccc1)NC(=O)[C@@H](CCSC)NC(=O)[C@@H](N)Cc1ccc(O)cc1)C(=O)N[C@@H](CC(=O)O)C(C)=O , strictly under 6 nM or not?
output: F

input: I'd appreciate it if you could check whether C[C@@H](NC(=O)[C@@H](N)Cc1ccc(O)cc1)C(=O)NCC(=O)N(C)[C@@H](Cc1ccccc1)C(=O)NCCO [DAMGO] has Ki smaller than 6 nM.
output: F

input: Just wondering, is Ki of CSCC[C@H](NC(=O)[C@H](CC(C)C)NC(=O)[C@H](Cc1cnc[nH]1)NC(=O)[C@H](Cc1ccccc1)NC(=O)[C@@H](CCSC)NC(=O)[C@@H](N)Cc1ccc(O)cc1)C(=O)N[C@@H](CC(=O)O)C(N)=O [DELTORPHIN A] (H-Y[dM]FHLMD-NH2) below 6 nM?
output: T

input: Problem: For the compound CC(C)[C@H](NC(=O)[C@H](CC(=O)O)NC(=O)[C@@H](NC(=O)[C@H](Cc1ccccc1)NC(=O)[C@H](C)NC(=O)[C@@H](N)Cc1ccc(O)cc1)C(C)C)C(=O)NCC(N)=O (H-YAFVDVG-NH2) , is Ki under 6 nM?
output: T
